measured_target: T1, Anti-CD28 Fab (SEQ ID NOs: 696, 697)
T1 construct: In the phage ELISA the Fab was biotinylated and captured on neutravidin coated plates
T1 sequence (VH, as listed by the source, chain 1 of 2): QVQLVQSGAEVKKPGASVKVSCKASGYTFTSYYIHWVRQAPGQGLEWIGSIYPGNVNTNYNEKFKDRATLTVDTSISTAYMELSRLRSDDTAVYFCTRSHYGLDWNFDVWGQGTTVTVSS
T1 sequence (VL, as listed by the source, chain 2 of 2): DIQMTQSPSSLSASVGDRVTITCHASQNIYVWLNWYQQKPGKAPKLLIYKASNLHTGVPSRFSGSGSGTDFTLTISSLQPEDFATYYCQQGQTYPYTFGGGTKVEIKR
assay_remarks: phage ELISA; captured anti-CD28 Fab pre-incubated with CD28 antigen as competitor, anti-M13 HRP;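 also: crude clonal phage supernatants added without washing after CD28 pre-incubation, bound phage detected with HRP anti-M13 antibody, reference wells got blocking buffer lacking CD28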
Where no end group is shown, it is not given here.
assay_endpoint: Anti-CD28 Fab signal in the presence of CD28 (phage binding ELISA)
Answers are plain numbers.

Use the examples below as a reference point.
| binder | experimental_value |
| --- | --- |
| YCDGHLPRYMEKCM (cysteine pairing not given here; also: displayed on phage by fusion to pIII, linker and pIII sequence not given here) [Phage-1200] | 0.06 |
| YCEGHLPSYLAKCL (cysteine pairing not given here; also: displayed on phage by fusion to pIII, linker and pIII sequence not given here) [Phage-1202] | 0.06 |
| YCDGHAPIYMQKCL (cysteine pairing not given here; also: displayed on phage by fusion to pIII, linker and pIII sequence not given here) [Phage-1196] | 0.06 |

Take each entry in turn and give its Anti-CD28 Fab signal in the presence of CD28 (phage binding ELISA).
1. YCDGHSSAYIDKCL (cysteine pairing not given here; also: displayed on phage by fusion to pIII, linker and pIII sequence not given here) [Phage-1201]
2. YCDGHAPEFIRKCL (cysteine pairing not given here; also: displayed on phage by fusion to pIII, linker and pIII sequence not given here) [Phage-1203]

1. 0.06
2. 0.07
